# Tested on: SK-MG-1 (Low Grade Glioma)
# protocol.description: combination Emax (second highest fraction inhibited in the dose matrix, 72 h); higher = more inhibition; extreme values may be limits of the assay
parameter.measured: combination Emax

[[record]]
molecule = "CC1(C)CCC(CN2CCN(c3ccc(C(=O)NS(=O)(=O)c4ccc(NCC5CCOCC5)c([N+](=O)[O-])c4)c(Oc4cnc5[nH]ccc5c4)c3)CC2)=C(c2ccc(Cl)cc2)C1 [Venetoclax] + Cc1cc2ncnn2cc1Nc1ncc2c(n1)n(C1CCOCC1)c(=O)n2C [AZD7648] (first compound max 1 µM, 7x7, partner max 10 µM)"
parameter_measured = "combination Emax"
result = 0.28

[[record]]
molecule = "CN(CCO)CC[C@H](CSc1ccccc1)Nc1ccc(S(=O)(=O)NC(=O)c2ccc(N3CCC([C@@H](O)c4ccccc4-c4ccc(Cl)cc4)CC3)cc2)cc1S(=O)(=O)C(F)(F)F [AZD4320] + CCN(CCO)CCCOc1ccc2c(Nc3cc(CC(=O)Nc4cccc(F)c4)[nH]n3)ncnc2c1 [AZD2811] (first compound max 1 µM, 7x7, partner max 1 µM)"
parameter_measured = "combination Emax"
result = 0.731

[[record]]
molecule = "Cc1cc2ncnn2cc1Nc1ncc2c(n1)n(C1CCOCC1)c(=O)n2C [AZD7648] + C=CCn1c(=O)c2cnc(Nc3ccc(N4CCN(C)CC4)cc3)nc2n1-c1cccc(C(C)(C)O)n1 [AZD1775] (first compound max 10 µM, partner max 1 µM)"
parameter_measured = "combination Emax"
result = 0.594


====

# Test system: U-698-M
# protocol.description: Bliss excess, mean over the matrix (fraction); higher = more synergy
# applied.conditions: first compound max 1 µM; partner max 3 µM; U-[…]; B-Cell Non-Hodgkin's Lymphoma; 7x7
parameter.measured: Bliss excess

[[record]]
compound = "Cc1c2c(nn1C)CSCc1cc(n(C)n1)CSc1cc(c3ccccc3c1)OCCCc1c(C(=O)O)n(C)c3c-2c(Cl)ccc13 [AZD5991] + Cn1cnc2c(F)c(Nc3ccc(Br)cc3Cl)c(C(=O)NOCCO)cc21"
target_or_system = "U-698-M"
numeric_readout = -0.0034

[[record]]
compound = "CN(CCO)CC[C@H](CSc1ccccc1)Nc1ccc(S(=O)(=O)NC(=O)c2ccc(N3CCC([C@@H](O)c4ccccc4-c4ccc(Cl)cc4)CC3)cc2)cc1S(=O)(=O)C(F)(F)F [AZD4320] + C1CN(CCC1(C(=O)N[C@@H](CCO)C2=CC=C(C=C2)Cl)N)C3=NC=NC4=C3C=CN4 [Capivasertib]"
target_or_system = "U-698-M"
numeric_readout = 0.0056

[[record]]
compound = "CN(CCO)CC[C@H](CSc1ccccc1)Nc1ccc(S(=O)(=O)NC(=O)c2ccc(N3CCC([C@@H](O)c4ccccc4-c4ccc(Cl)cc4)CC3)cc2)cc1S(=O)(=O)C(F)(F)F [AZD4320] + CC(=O)O[C@H]1C(=O)[C@@]2(C)[C@H]([C@H](OC(=O)c3ccccc3)[C@]3(O)C[C@H](OC(=O)[C@H](O)[C@@H](NC(=O)c4ccccc4)c4ccccc4)C(C)=C1C3(C)C)[C@]1(OC(C)=O)CO[C@@H]1C[C@@H]2O [Paclitaxel]"
target_or_system = "U-698-M"
numeric_readout = -0.0109


====

Recorded measurements of combination Emax, one per entry
# System: BICR22 (Oral Cavity Carcinoma)
# protocol.description: combination Emax (second highest fraction inhibited in the dose matrix, 72 h); higher = more inhibition; extreme values may be limits of the assay
parameter.measured: combination Emax

[[record]]
molecule = "CC1(C)CCC(CN2CCN(c3ccc(C(=O)NS(=O)(=O)c4ccc(NCC5CCOCC5)c([N+](=O)[O-])c4)c(Oc4cnc5[nH]ccc5c4)c3)CC2)=C(c2ccc(Cl)cc2)C1 [Venetoclax] + C[C@@H]1COCCN1C2=NC(=NC(=C2)C3(CC3)[S@](=N)(=O)C)C4=C5C=CNC5=NC=C4 [AZD6738] (first compound max 1 µM, 7x7, partner max 10 µM)"
numeric_readout = 0.768

[[record]]
molecule = "Cn1cnc2c(F)c(Nc3ccc(Br)cc3Cl)c(C(=O)NOCCO)cc21 [Selumetinib] + C[C@@H]1COCCN1C2=NC(=NC(=C2)C3(CC3)[S@](=N)(=O)C)C4=C5C=CNC5=NC=C4 [AZD6738] (first compound max 10 µM, 7x7, partner max 10 µM)"
numeric_readout = 0.722

[[record]]
molecule = "C=CCn1c(=O)c2cnc(Nc3ccc(N4CCN(C)CC4)cc3)nc2n1-c1cccc(C(C)(C)O)n1 [AZD1775] + C1CN(CCC1(C(=O)N[C@@H](CCO)C2=CC=C(C=C2)Cl)N)C3=NC=NC4=C3C=CN4 [Capivasertib] (first compound max 3 µM, partner max 3 µM)"
numeric_readout = 0.594


====

# Test system: COLO-320-HSR (Colorectal Carcinoma)
# protocol.description: Bliss excess, mean over the matrix (fraction); higher = more synergy
parameter.measured: Bliss excess

[[record]]
molecule = "CCN(CCO)CCCOc1ccc2c(Nc3cc(CC(=O)Nc4cccc(F)c4)[nH]n3)ncnc2c1 [AZD2811] + C=CCn1c(=O)c2cnc(Nc3ccc(N4CCN(C)CC4)cc3)nc2n1-c1cccc(C(C)(C)O)n1 [AZD1775] (first compound max 1 µM, partner max 1 µM)"
parameter_measured = "Bliss excess"
numeric_readout = -0.0465

[[record]]
molecule = "CC1(C)CCC(CN2CCN(c3ccc(C(=O)NS(=O)(=O)c4ccc(NCC5CCOCC5)c([N+](=O)[O-])c4)c(Oc4cnc5[nH]ccc5c4)c3)CC2)=C(c2ccc(Cl)cc2)C1 [Venetoclax] + CS(=O)(=O)CCNCc1ccc(-c2ccc3ncnc(Nc4ccc(OCc5cccc(F)c5)c(Cl)c4)c3c2)o1 [Lapatinib] (first compound max 1 µM, 7x7, partner max 10 µM)"
parameter_measured = "Bliss excess"
numeric_readout = -0.0048

[[record]]
molecule = "CN(CCO)CC[C@H](CSc1ccccc1)Nc1ccc(S(=O)(=O)NC(=O)c2ccc(N3CCC([C@@H](O)c4ccccc4-c4ccc(Cl)cc4)CC3)cc2)cc1S(=O)(=O)C(F)(F)F [AZD4320] + Cn1cnc2c(F)c(Nc3ccc(Br)cc3Cl)c(C(=O)NOCCO)cc21 [Selumetinib] (first compound max 1 µM, 7x7, partner max 3 µM)"
parameter_measured = "Bliss excess"
numeric_readout = 0.0102


====

Recorded Bliss excess values for a group of compounds are listed next.
# Test system: NCI-H1666 (Lung Adenocarcinoma)
# protocol.description: Bliss excess, mean over the matrix (fraction); higher = more synergy
parameter.measured: Bliss excess

[[record]]
compound = "CN(C)CCCOc1ccc(-c2ccc3ncc4c(c3c2)n(C2CCOCC2)c(=O)n4C)cn1 [AZD0156] + C=CCn1c(=O)c2cnc(Nc3ccc(N4CCN(C)CC4)cc3)nc2n1-c1cccc(C(C)(C)O)n1 [AZD1775] (first compound max 1 µM, partner max 1 µM)"
numeric_readout = -0.0371

[[record]]
compound = "NC1(C(=O)N[C@@H](CCO)c2ccc(Cl)cc2)CCN(c2ncnc3[nH]ccc23)CC1 [Capivasertib] + COc1nnc2ccc(N3CCC(c4ccc(OCCN5CCN(C)C(=O)[C@H]5C)cc4)CC3)nn12 [AZD5153] (first compound max 10 µM, 7x7, partner max 1 µM)"
numeric_readout = -0.0136

[[record]]
compound = "Cc1c2c(nn1C)CSCc1cc(n(C)n1)CSc1cc(c3ccccc3c1)OCCCc1c(C(=O)O)n(C)c3c-2c(Cl)ccc13 [AZD5991] + Cn1cnc2c(F)c(Nc3ccc(Br)cc3Cl)c(C(=O)NOCCO)cc21 [Selumetinib] (first compound max 1 µM, 7x7, partner max 3 µM)"
numeric_readout = 0.0499

[[record]]
compound = "N#Cc1cnc(Nc2cc(NC[C@H]3CNCCO3)c(C(F)(F)F)cn2)cn1 [SRA737] + C=CCn1c(=O)c2cnc(Nc3ccc(N4CCN(C)CC4)cc3)nc2n1-c1cccc(C(C)(C)O)n1 [AZD1775] (first compound max 10 µM, partner max 1 µM)"
numeric_readout = -0.0345


====

// reported combination Emax for each item listed
# Tested on: SK-MES-1 (Squamous Cell Lung Carcinoma)
# protocol.description: combination Emax (second highest fraction inhibited in the dose matrix, 72 h); higher = more inhibition; extreme values may be limits of the assay
parameter.measured: combination Emax

[[record]]
molecule = "COc1cccc(OCCCN)c1-c1cc(Nc2cnc(C#N)cn2)n[nH]1 [Prexasertib] + CCc1c2c(nc3ccc(O)cc13)-c1cc3c(c(=O)n1C2)COC(=O)[C@]3(O)CC [SN-38] (first compound max 1 µM, 7x7, partner max 0.3 µM)"
target_or_system = "SK-MES-1 (Squamous Cell Lung Carcinoma)"
parameter_measured = "combination Emax"
result = 0.953

[[record]]
molecule = "CN(CCO)CC[C@H](CSc1ccccc1)Nc1ccc(S(=O)(=O)NC(=O)c2ccc(N3CCC([C@@H](O)c4ccccc4-c4ccc(Cl)cc4)CC3)cc2)cc1S(=O)(=O)C(F)(F)F [AZD4320] + CN(C)CCCOc1ccc(-c2ccc3ncc4c(c3c2)n(C2CCOCC2)c(=O)n4C)cn1 [AZD0156] (first compound max 1 µM, 7x7, partner max 1 µM)"
target_or_system = "SK-MES-1 (Squamous Cell Lung Carcinoma)"
parameter_measured = "combination Emax"
result = 0.208

[[record]]
molecule = "C=CCn1c(=O)c2cnc(Nc3ccc(N4CCN(C)CC4)cc3)nc2n1-c1cccc(C(C)(C)O)n1 [AZD1775] + C1CN(CCC1(C(=O)N[C@@H](CCO)C2=CC=C(C=C2)Cl)N)C3=NC=NC4=C3C=CN4 [Capivasertib] (first compound max 3 µM, partner max 3 µM)"
target_or_system = "SK-MES-1 (Squamous Cell Lung Carcinoma)"
parameter_measured = "combination Emax"
result = 0.781

[[record]]
molecule = "NC1(C(=O)N[C@@H](CCO)c2ccc(Cl)cc2)CCN(c2ncnc3[nH]ccc23)CC1 [Capivasertib] + COc1nnc2ccc(N3CCC(c4ccc(OCCN5CCN(C)C(=O)[C@H]5C)cc4)CC3)nn12 [AZD5153] (first compound max 10 µM, 7x7, partner max 1 µM)"
target_or_system = "SK-MES-1 (Squamous Cell Lung Carcinoma)"
parameter_measured = "combination Emax"
result = 0.583

[[record]]
molecule = "CS(=O)(=O)CCNCc1ccc(-c2ccc3ncnc(Nc4ccc(OCc5cccc(F)c5)c(Cl)c4)c3c2)o1 [Lapatinib] + C[C@@H](Oc1cc(-c2cnn(C3CCNCC3)c2)cnc1N)c1c(Cl)ccc(F)c1Cl [Crizotinib] (first compound max 10 µM, 7x7, partner max 10 µM)"
target_or_system = "SK-MES-1 (Squamous Cell Lung Carcinoma)"
parameter_measured = "combination Emax"
result = 0.966

[[record]]
molecule = "CN(C)CCCOc1ccc(-c2ccc3ncc4c(c3c2)n(C2CCOCC2)c(=O)n4C)cn1 [AZD0156] + O=C(c1cc(Cc2n[nH]c(=O)c3ccccc23)ccc1F)N1CCN(C(=O)C2CC2)CC1 [Olaparib] (first compound max 3 µM, partner max 3 µM)"
target_or_system = "SK-MES-1 (Squamous Cell Lung Carcinoma)"
parameter_measured = "combination Emax"
result = 0.407

[[record]]
molecule = "COc1nnc2ccc(N3CCC(c4ccc(OCCN5CCN(C)C(=O)[C@H]5C)cc4)CC3)nn12 [AZD5153] + CN(CC[C@H](CSC1=CC=CC=C1)NC2=C(C=C(C=C2)S(=O)(=O)NC(=O)C3=CC=C(C=C3)N4CCC(CC4)[C@H](C5=CC=CC=C5C6=CC=C(C=C6)Cl)O)S(=O)(=O)C(F)(F)F)CCO [AZD4320] (first compound max 1 µM, 7x7, partner max 1 µM)"
target_or_system = "SK-MES-1 (Squamous Cell Lung Carcinoma)"
parameter_measured = "combination Emax"
result = 0.631

[[record]]
molecule = "C[C@@H](c1ccc2nccn2c1)n1nnc2ncc(-c3cnn(C)c3)nc21 [Savolitinib] + Cc1c2c(nn1C)CSCc1cc(n(C)n1)CSc1cc(c3ccccc3c1)OCCCc1c(C(=O)O)n(C)c3c-2c(Cl)ccc13 [AZD5991] (first compound max 1 µM, 7x7, partner max 1 µM)"
target_or_system = "SK-MES-1 (Squamous Cell Lung Carcinoma)"
parameter_measured = "combination Emax"
result = 0.228


Recorded values, source the supplement of paper PMC11061612.
